Data credit: patent US20110105515A1

- Tested on: UACC-257
- Measurement Context: read-out: LC50; UACC-257 (Melanoma), 48 hours, SRB
Measurement Label: CC50

CC1(C)C=Cc2c(ccc3c4c(n(O)c23)C(C)(C)C2CC35CCCN3C(=O)C2(NC5=O)C4SCC(NC(=O)CCC(N)C(=O)O)C(=O)NCC(=O)O)O1 (centres unmarked); 17.3 µM

Ask: Tell me its CC50 given CN(C)c1cccc2c(S(=O)(=O)NCCCCCCCCCCOc3ccc4c(c3)[N+]([O-])=C3C4=C[C@@]45NC(=O)C6(CCCN6C4=O)CC5C3(C)C)cccc12 (some centres unmarked) as the entry.
Reply: 7.74 µM
